# Lookup of reported protein stability index keyed by entry
test: protein stability index of a GFP-peptide fusion (GPS, HEK-293T) (PSI 1-6); higher = more stable; settings: treatment: MLN4924 1 uM, 8 h; c terminus: a fixed tail appended;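 note: 24-mer peptide tiles fused after GFP, lentivirally expressed, FACS-sorted into six equal bins by GFP/DsRed ratio, decoded by Illumina sequencing, PSI is the read-weighted mean bin number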

{"querySequence": "MVLLTMIARVADGLPLAASMQEDE [SEC22B]", "protein stability index": 2.94}
{"querySequence": "QQMVASGTGAVVTSLFMTPLDVVK [SLC25A39]", "protein stability index": 2.98}
{"querySequence": "QFVEGVRMEEIVEGCTGALHILAR [CTNNB1]", "protein stability index": 3.05}
{"querySequence": "LSMERYALVFGVNTFIALALQTLL [SLC19A2]", "protein stability index": 2.93}
{"querySequence": "SDINSLRRILDELTLCRSDLEAQM [KRT33B]", "protein stability index": 2.92}

Where these numbers come from: the supplement of paper PMC10567573
